tested on: ACHN renal; assay: NCI tumour cell line growth inhibition, 48 h

>  <compound>
CCN(Cc1ccccc1OC)c1ccc(CO)c(Cl)c1

>  <GI50>
14.1 µM

$$$$
>  <compound>
C[C@@H]1COCCN1c1cc(C2(S(C)(=N)=O)CC2)nc(-c2ccnc3[nH]ccc23)n1 (stereo not given in full)

>  <GI50>
0.592 µM

$$$$
>  <compound>
COc1cc[nH]c1/C=C1\C(=O)Nc2ccc(F)c(I)c21

>  <GI50>
> 25 µM

$$$$
>  <compound>
Clc1nc(Cl)c2ncn(Cc3ccc(COc4cccc(OCc5ccc(Cn6cnc7c(Cl)nc(Cl)nc76)cc5)c4)cc3)c2n1

>  <GI50>
45.4 µM

$$$$
>  <compound>
Cc1nc2sc(C(=O)Nc3ccccc3)c(N)c2cc1C(=O)/C=C/c1ccccc1

>  <GI50>
1.81 µM

$$$$

* * *

test system: OVCAR-8 ovarian; assay: NCI tumour cell line growth inhibition, 48 h
Consider the following molecules and their measured GI50 readings.
observation type: GI50

>  <compound structure>
ClCc1c(Cl)c(Cl)c(Cl)c(CCl)c1Cl

>  <observation type>
GI50

>  <reported>
2.51 µM

$$$$
>  <compound structure>
Fc1ccc2[nH]c3c(NCCCN4CCOCC4)ncnc3c2c1

>  <observation type>
GI50

>  <reported>
66.8 µM

$$$$
>  <compound structure>
O=C1C(Cl)=C(Nc2cccc(O)c2)C(=O)N1c1cc(Cl)c(Cl)cc1Cl

>  <observation type>
GI50

>  <reported>
24 µM

$$$$

* * *

tested on: MDA-N; assay: NCI tumour cell line growth inhibition, 48 h
observation type: TGI

>  <compound>
CCCCCCCCCCCCCC(=O)CBr

>  <target of assay>
MDA-N

>  <reported>
25 µM

$$$$
>  <compound>
CNC(=S)N/N=C/c1cccc(C)n1

>  <target of assay>
MDA-N

>  <reported>
> 100 µM

$$$$
>  <compound>
CC(C)NC(=O)OCCS(=O)c1c(Cl)c(Cl)nn1C (stereo unspecified)

>  <target of assay>
MDA-N

>  <reported>
> 100 µM

$$$$
>  <compound>
O=S1C2=C(Cc3ccccc3)C(Cc3ccccc3)=C1CCc1cccc(c1)CC2

>  <target of assay>
MDA-N

>  <reported>
30.6 µM

$$$$
>  <compound>
Cc1cccc2c1NC(=S)[C@@H]1CCCN1C2=O

>  <target of assay>
MDA-N

>  <reported>
> 100 µM

$$$$
>  <compound>
CCCCOC(=O)C(O)Cc1ccoc1 (stereo unspecified)

>  <target of assay>
MDA-N

>  <reported>
> 100 µM

$$$$
>  <compound>
COc1cccc(NC(=O)CC(=O)N2N=C(C)C(N=Nc3ccc(S(=O)(=O)c4ccc(N=NC5C(=O)N(C(=O)CC(=O)Nc6cccc(OC)c6)N=C5C)cc4)cc3)C2=O)c1 (stereo unspecified)

>  <target of assay>
MDA-N

>  <reported>
> 100 µM

$$$$
>  <compound>
CCOC(=O)CCC(NC(=O)c1ccc(N2CCN(c3c(C)nc(N)nc3N)CC2)cc1)C(=O)OCC (stereo unspecified)

>  <target of assay>
MDA-N

>  <reported>
> 54.7 µM

$$$$
>  <compound>
O=[N+]([O-])c1ccc2nc(/C=C(\O)c3ccc(F)cc3)c(/C=C(\O)c3ccc(F)cc3)nc2c1

>  <target of assay>
MDA-N

>  <reported>
> 100 µM

$$$$
>  <compound>
S=c1[nH]c(=S)c2cc(Sc3ccc4[nH]c(=S)[nH]c(=S)c4c3)ccc2[nH]1

>  <target of assay>
MDA-N

>  <reported>
> 100 µM

$$$$
>  <compound>
CC1(C)Oc2ccc3c(=O)cc(-c4ccc(F)cc4)oc3c2C1C(=O)O (stereo unspecified)

>  <target of assay>
MDA-N

>  <reported>
> 100 µM

$$$$
>  <compound>
OC1COC(n2c3ccc(Br)cc3c3ccc4c5ccccc5[nH]c4c32)C(O)C1O (stereo unspecified)

>  <target of assay>
MDA-N

>  <reported>
15.2 µM

$$$$
>  <compound>
COc1ccc(N=C(Nc2ccc(OC)cc2)C(=Nc2ccc(OC)cc2)Nc2ccc(OC)cc2)cc1

>  <target of assay>
MDA-N

>  <reported>
> 100 µM

$$$$
>  <compound>
CC[C@H]1OC([C@H](O)C/C=C\C#C[Si](C)(C)C)C/C=C\C[C@H]1O[Si](C)(C)C(C)(C)C (stereo partly specified)

>  <target of assay>
MDA-N

>  <reported>
> 100 µM

$$$$
>  <compound>
CC[n+]1c(/C=C/c2ccc(N(CCCl)CCCl)cc2)ccc2cc(NC(=O)/C=C/c3ccccc3)ccc21

>  <target of assay>
MDA-N

>  <reported>
1.7 µM

$$$$
>  <compound>
CCc1cc(O)c(Cl)c(C)c1Cl

>  <target of assay>
MDA-N

>  <reported>
29.9 µM

$$$$
>  <compound>
C=CC[C@H](C)CCC(=O)N1[C@H]2CC3CC[C@@]2(CS1(=O)=O)C3(C)C

>  <target of assay>
MDA-N

>  <reported>
> 100 µM

$$$$
>  <compound>
COC(=O)c1c(C)cccc1/C=C1\Cc2cc(C)cc(C)c2C1=O

>  <target of assay>
MDA-N

>  <reported>
> 100 µM

$$$$
>  <compound>
CC(C)CCn1c(=O)c2c(=O)[nH][nH]c2c2ccccc21

>  <target of assay>
MDA-N

>  <reported>
> 100 µM

$$$$
>  <compound>
N#Cc1ccc(OCc2nc3cc(C(F)(F)F)ccc3nc2-c2ccccc2)cc1

>  <target of assay>
MDA-N

>  <reported>
> 100 µM

$$$$
>  <compound>
NC(C(=O)[O-])C(=O)[O-].NC1CCCCC1N.[Pt+4]

>  <target of assay>
MDA-N

>  <reported>
> 100 µM

$$$$
>  <compound>
O=c1oc2ccccc2n1CCN1CCCCC1

>  <target of assay>
MDA-N

>  <reported>
> 100 µM

$$$$
>  <compound>
COCc1cc2c(cc1/C=C/[N+](=O)[O-])OCO2

>  <target of assay>
MDA-N

>  <reported>
32.6 µM

$$$$
>  <compound>
CSC1=C(c2ccc(Cl)cc2)SC(N2CCCCC2)N1c1ccc([N+](=O)[O-])cc1 (stereo unspecified)

>  <target of assay>
MDA-N

>  <reported>
> 100 µM

$$$$
>  <compound>
N#CC1(C#N)NC(c2ccsc2)C(C#N)(C#N)NC1c1ccsc1 (stereo unspecified)

>  <target of assay>
MDA-N

>  <reported>
> 100 µM

$$$$
>  <compound>
C[Si](C)(OCCS(=O)(=O)O)C1S(=O)(=O)OCCOS1(=O)=O

>  <target of assay>
MDA-N

>  <reported>
> 100 µM

$$$$

* * *

test system: SW-620 colon; assay: NCI tumour cell line growth inhibition, 48 h
The following compounds are shown together with reported TGI values.

>  <compound>
CSC1=C(c2ccc(Cl)cc2)SC(N2CCCCC2)N1c1ccc([N+](=O)[O-])cc1 (stereo not given)

>  <TGI>
> 100 µM

$$$$
>  <compound>
CC(C)CC1=[N+]=C(NC#N)N=C(CCC(=O)Nc2ccccc2[N+](=O)[O-])C1

>  <TGI>
> 100 µM

$$$$
>  <compound>
COC(=O)/N=[N+](\[O-])C(c1ccc(OC)cc1)C1CCCCC1 (stereo not given)

>  <TGI>
24.3 µM

$$$$
>  <compound>
CN(C)CCOc1ccc2c(c1)C/C(=C/c1ncc([N+](=O)[O-])n1C)C2=O

>  <TGI>
18.2 µM

$$$$
>  <compound>
CC(=O)OCC1OC(n2ccc(=O)[nH]c2=O)C(OC(C)=O)C1OC(C)=O (stereo not given)

>  <TGI>
> 100 µM

$$$$
>  <compound>
COC(=O)CCC12CCC(O1)c1ccccc12 (stereo not given)

>  <TGI>
> 100 µM

$$$$
>  <compound>
COc1cc(C2c3cc4c(cc3[C@@H](Nc3cccc(C(C)=O)c3)C3COC(=O)[C@H]23)OCO4)cc(OC)c1O (stereo not given in full)

>  <TGI>
> 38.2 µM

$$$$
>  <compound>
COc1ccc(-c2cn(-c3ccccc3)c(-c3ccccc3)n2)cc1OC

>  <TGI>
18.5 µM

$$$$
>  <compound>
CCCCOC(=O)C(O)Cc1ccoc1 (stereo not given)

>  <TGI>
> 100 µM

$$$$
>  <compound>
CCCCCCCCCCCCCC(=O)CBr

>  <TGI>
30.2 µM

$$$$
>  <compound>
O=C(CCl)N1c2ccccc2Sc2c1ccc1ccccc21

>  <TGI>
3.68 µM

$$$$
>  <compound>
O=[N+]([O-])c1ccc2nc(/C=C(\O)c3ccc(F)cc3)c(/C=C(\O)c3ccc(F)cc3)nc2c1

>  <TGI>
> 100 µM

$$$$
>  <compound>
CC(=O)n1c2ccccc2c2nc3nc(Oc4ccc(C)cc4)c4ccccc4c3cc21

>  <TGI>
> 100 µM

$$$$
>  <compound>
CC(=O)OC1c2ccccc2CCCCCCC12OCCO2 (stereo not given)

>  <TGI>
> 100 µM

$$$$
>  <compound>
CC(=O)[O-].CC(=O)[O-].[NH2-].[Pt+2].c1ccc2cnccc2c1

>  <TGI>
38.3 µM

$$$$
>  <compound>
C[C@@H]1CN(CC(=O)N2CC(C)(C)c3nc(CO)c(Cc4ccc(F)cc4)cc32)[C@@H](CN2CCOC[C@H]2C)CN1

>  <TGI>
> 100 µM

$$$$
>  <compound>
Cc1c(NC(=S)Nc2ccc(Cl)cc2)c(=O)n(-c2ccccc2)n1C

>  <TGI>
> 100 µM

$$$$
>  <compound>
CC(C)C1OC(=O)/C=C/C=C/C=C/C=C/C=C/CC(O)CC(O)CC(O)CC(O)CC(O)CC(O)CC(O)CC(O)/C=C/C1C (stereo not given)

>  <TGI>
> 100 µM

$$$$
>  <compound>
CCCCN(Cc1ccc(F)cc1)c1ccc(CO)c(Cl)c1

>  <TGI>
20.7 µM

$$$$
>  <compound>
N[C@H](C(=O)O)[C@H](Cl)CC(=O)O

>  <TGI>
> 100 µM

$$$$
>  <compound>
N#CC1(C#N)NC(c2ccsc2)C(C#N)(C#N)NC1c1ccsc1 (stereo not given)

>  <TGI>
> 100 µM

$$$$
>  <compound>
CCOC(=O)NN1C(=O)C(=P(c2ccccc2)(c2ccccc2)c2ccccc2)C(C(=O)OCC)=C1C

>  <TGI>
> 100 µM

$$$$
>  <compound>
Nc1cc(N)c(N)cc1N

>  <TGI>
12.1 µM

$$$$
>  <compound>
CC(=O)Nc1ccc2c(c1)oc(=O)c1cc(NC(C)=O)ccc12

>  <TGI>
> 100 µM

$$$$
>  <compound>
COc1ccc2c(c1)c1c(n2CCN2CCCCC2)-c2ccccc2CC1

>  <TGI>
37.8 µM

$$$$
>  <compound>
Brc1ccccc1-c1ncc(-c2ccccc2)o1

>  <TGI>
> 100 µM

$$$$
>  <compound>
Cc1cc2c3ccccc3n(C)c2c2c1C(=O)C=CC2=O

>  <TGI>
32.8 µM

$$$$
>  <compound>
CC(C)(Br)C1(O)CCCN1C(=O)c1ccccc1 (stereo not given)

>  <TGI>
> 100 µM

$$$$
>  <compound>
OC1COC(n2c3ccc(Br)cc3c3ccc4c5ccccc5[nH]c4c32)C(O)C1O (stereo not given)

>  <TGI>
29.4 µM

$$$$
>  <compound>
c1ccc(-c2nn(-c3ccccc3)[n+](-c3ccccc3)n2)cc1

>  <TGI>
> 100 µM

$$$$
